System: HepG2
Assay: cytotoxicity call (relative viability < 0.9)
Details: 10 µM
Screen size: about 39,000 compounds; about 3,300 (8.5%) were called active. The list comes from a sample in which actives are over-represented; it also holds close analogues and randomly drawn compounds.
Hello, when you answer, please use one of the following outcomes: active, inactive

Here are 5 molecules together with their reported answers.
C[C@H]1CN([C@@H](C)CO)C(=O)c2cc(NC(=O)Nc3cccc4ccccc34)ccc2O[C@H]1CN(C)C(=O)Nc1ccc(F)cc1 :: inactive
O=C(NCO)c1ccc([N+](=O)[O-])cc1 :: inactive
COc1ccc2c3c([nH]c2c1)[C@H](CO)N(Cc1ccc(cc1)Cl)C[C@]13CCN(CCc2ccccc2)CC1 :: active
COc1ccc2c3c([nH]c2c1)[C@@H](CO)N(Cc1ccncc1)C[C@]13CCN(CC1)Cc1ccc(cc1)-c1ccccn1 :: inactive
Cc1noc(C)c1NC(=O)Nc1ccc2c(c1)CC(=O)N([C@H](C)CO)C[C@@H](C)[C@@H](CN(C)Cc1ccc(Cl)c(Cl)c1)O2 :: inactive

[Q] Returns: the outcome recorded for `COCC#Cc1cnc2c(c1)C(=O)N([C@H](C)CO)C[C@H](C)[C@@H](CN(C)C(=O)c1cnccn1)O2` in this assay.
[A] inactive

[Q] Returns: the outcome recorded for `Cc1nnc(SCC2=C(C(=O)O)N3C(=O)[C@@H](N)[C@H]3SC2)s1` in this assay.
[A] inactive

[Q] Returns: the outcome recorded for `O=C(C[C@@H]1C[C@@H]2c3cc(NS(=O)(=O)c4ccc(F)cc4)ccc3O[C@@H]2[C@@H](CO)O1)NCCN1CCCCC1` in this assay.
[A] inactive

[Q] Returns: the outcome recorded for `C[C@@H]1CN([C@H](C)CO)C(=O)c2cccc(NC(=O)Nc3ccccc3)c2O[C@@H]1CN(C)Cc1ccc(C(=O)Nc2ccccc2N)cc1` in this assay.
[A] inactive

[Q] Returns: the outcome recorded for `C[C@@H]1CN([C@@H](C)CO)C(=O)c2cccc(NC(=O)Nc3ccc(F)cc3)c2O[C@@H]1CN(C)Cc1ccc(C(=O)Nc2ccccc2N)cc1` in this assay.
[A] active

[Q] Returns: the outcome recorded for `O=C(Nc1cc(C(F)(F)F)cc(C(F)(F)F)c1)Nc1cnn(-c2ccc([N+](=O)[O-])cc2)c1C(F)(F)F` in this assay.
[A] active

[Q] Returns: the outcome recorded for `O=C(C[C@@H]1C[C@H]2c3cc(NS(=O)(=O)c4ccc(F)cc4)ccc3O[C@H]2[C@@H](CO)O1)N1CCOCC1` in this assay.
[A] inactive

[Q] Returns: the outcome recorded for `CN(C)Cc1cn(CC[C@H]2CC[C@@H](NS(=O)(=O)c3ccccc3)[C@H](CO)O2)nn1` in this assay.
[A] inactive

* * *

Tested on: HepG2
Test: cytotoxicity call (relative viability < 0.9)
Conditions: 10 µM
Among all 39,000 compounds or so, about 3,300 (8.5%) were called active. This excerpt belongs to a sample that is enriched for actives.
Hello, when you answer, please use one of the following outcomes: true = active, false = inactive

O=C(C[C@H]1CC[C@@H]2NC[C@H](O)COC[C@H]2O1)NCCN1CCCCC1 :: false

[Q] Returns: the outcome recorded for `C[C@H](NC(=O)C[C@@H]1C[C@@H]2c3cc(NC(=O)Nc4ccc(C(F)(F)F)cc4)ccc3O[C@@H]2[C@H](CO)O1)c1ccccc1` in this assay.
[A] false

[Q] Returns: the outcome recorded for `O=C(C[C@H]1C[C@@H]2c3cc(NC(=O)NC4CCCC4)ccc3O[C@@H]2[C@@H](CO)O1)NCc1ccc(-c2ccccc2)cc1` in this assay.
[A] true

[Q] Returns: the outcome recorded for `O=C(C[C@@H]1C[C@@H]2c3cc(NC(=O)Nc4ccc(C(F)(F)F)cc4)ccc3O[C@@H]2[C@@H](CO)O1)NC1CCCCC1` in this assay.
[A] false

[Q] Returns: the outcome recorded for `O=C(C[C@H]1C[C@H]2c3cc(NC(=O)NC4CCCC4)ccc3O[C@H]2[C@@H](CO)O1)NCc1ccc(-c2ccccc2)cc1` in this assay.
[A] false

[Q] Returns: the outcome recorded for `O=C(C[C@H]1C[C@@H]2c3cc(NC(=O)NC4CCCC4)ccc3O[C@@H]2[C@H](CO)O1)NCc1ccc(-c2ccccc2)cc1` in this assay.
[A] true

[Q] Returns: the outcome recorded for `O=C(C[C@@H]1C[C@H]2c3cc(NC(=O)Nc4ccc(C(F)(F)F)cc4)ccc3O[C@H]2[C@@H](CO)O1)NC1CCCCC1` in this assay.
[A] false

The reported numbers originate from the antibiotic and cytotoxicity screens of Wong et al. (2023).
